Target: T1, OsCS aa 316-583 (Oryza sativa, UniProt A2Y0X2 316-583)
T1 construct: bait, Gal4 DBD fusion; also called PN19707
T1 sequence: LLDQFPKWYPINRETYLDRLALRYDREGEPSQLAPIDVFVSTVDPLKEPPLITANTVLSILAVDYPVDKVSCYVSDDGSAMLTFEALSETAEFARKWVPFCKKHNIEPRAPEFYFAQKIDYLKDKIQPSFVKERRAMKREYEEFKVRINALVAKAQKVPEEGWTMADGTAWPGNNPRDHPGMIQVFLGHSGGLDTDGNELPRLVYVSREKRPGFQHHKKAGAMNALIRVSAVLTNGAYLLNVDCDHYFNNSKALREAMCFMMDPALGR
Test: Y2H; output trait library
PARAMETER: binding result

>  <BINDER>
OsPN29117 prey clone -7-151 (other, prey, AD fusion; clone includes a small portion (-7 to 0) of the 5' untranslated region; also called Novel Protein PN29117) MLVQRRDGDTGPAVRLRVSHGASFRDVAVPAHSTFGELKGVLTQATGVEPERQRLFFRGKEKSDNEFLHTAGVKDGAKLLLLEKPAPANVEQRAEPVIMDESMMKACEAVGRVRAEVDRLSAKVCDLEKSVFAGRKIEDKDFVVLTELLMM

>  <PARAMETER>
binding result

>  <REPORTED RESULT>
binds

$$$$
>  <BINDER>
OsPN29084 aa 1-253 (other, prey, AD fusion; also called Novel Protein PN29084, Fragment, Similar to Soybean Calcium-Dependent Protein Kinase) ESGIFRQILRGKLDLESDPWPSISDSAKDLVRNMLIRDPTKRFTAHEVLCHPWIVDDAVAPDKPIDSAVLSRLKHFSAMNKLKKMALRVIAESLSEEEIGGLKELFKMIDTDNSGTITYDELKNGLKRVGSDLMEPEIQALMDAADIDNSGTIDYGEFLAATLHMNKLEREENLVSAFTFFDKDGSGFITIDELSQACEQFGLSDVHLEDMIKDVDQNNDGQIDYSEFAAMMRKGNAGGANAGGVTSTGGTGR

>  <PARAMETER>
binding result

>  <REPORTED RESULT>
binds

$$$$
>  <BINDER>
OsPN29113 aa 1-92 (other, prey, AD fusion; also called O. sativa DNAJ Homologue) CKVSYIDAILGTTVKVPTVDGMVDLKIPSGTQPGTTLVMSKKGVPLLGKSNARGDQLVRVQVEIPKRLSSDERKLIEELANLNKAQTANSRR

>  <PARAMETER>
binding result

>  <REPORTED RESULT>
binds

$$$$
